The measured values listed here are drawn from paper PMC10728220.

Quick reference for IC50 among some molecules
Tested on: normal human skin melanocyte cell line (HFB4)
Assay: Cytotoxic MTT assay, normal HFB4 cells
Assay type: cell-based
Settings: 48 h treatment
Experimental: MTT protocol was performed to study the viability of cells after treatment with the tested compounds. The studied cell lines (A549 and HCT116) were cultured and grown in RPMI‐1640 media, while HFB4 cells were reserved in DMEM‐F12 media. Both media were supplemented with 10% FBS, 1% L‐glutamine, and 1% antibiotic–antimycotic mixture. […] The optical density at 575 nm was read using a microplate multi-well reader, and the percentage of cell viability was calculated. […]

COc1ccc(-c2nn(-c3ccccc3)cc2/C=C(\C#N)C(=O)c2c[nH]c3ccccc23)cc1 [Compound 7c]; > 100 µg/mL

Moving on to the next molecule.
Qu. Find the measured IC50: item N#C/C(=C\c1cn(-c2ccccc2)nc1-c1ccc([N+](=O)[O-])cc1)C(=O)c1c[nH]c2ccccc12 [Compound 7f] , target or system normal human skin melanocyte cell line (HFB4).
Ans. 56.7 µg/mL

###

Tested on: normal human skin melanocyte cell line (HFB4)
Experiment: Cytotoxic MTT assay, normal HFB4 cells
Format: cell-based
Details: 48 h treatment
endpoint: IC50

Known IC50 results, listed for orientation:
N#C/C(=C\c1cn(-c2ccccc2)nc1-c1ccc(Cl)cc1)C(=O)c1c[nH]c2ccccc12 [Compound 7e]; > 100 µg/mL
N#C/C(=C\c1cn(-c2ccccc2)nc1-c1ccc(O)cc1)C(=O)c1c[nH]c2ccccc12 [Compound 7d]; > 100 µg/mL
N#C/C(=C\c1cn(-c2ccccc2)nc1-c1ccccc1)C(=O)c1c[nH]c2ccccc12 [Compound 7a]; > 100 µg/mL
Cc1ccc(-c2nn(-c3ccccc3)cc2/C=C(\C#N)C(=O)c2c[nH]c3ccccc23)cc1 [Compound 7b]; > 100 µg/mL

Now turn to the next molecule.
Qu. Form entry - test system: normal human skin melanocyte cell line (HFB4); read-out: IC50; molecule: O=c1[nH]cc(F)c(=O)[nH]1 [5 FU, 5-Fluorouracil, reference compound]
Ans. 223 µg/mL
